The values you see were collected from BindingDB's records for PubMed 33309162.

Target: PI3K catalytic subunit alpha (PIK3CA), rat
Experiment: Inhibition of PI3Kalpha in rat Rat1 cells reduction in phosphorylation of AKT at Ser473 residue incubated for 2 hrs by alpha screen assay
endpoint name: IC50

Cn1nccc1-n1c([C@@H]2CSCN2c2ncnc(N)c2C#N)nc2cccc(Cl)c2c1=O > 10 µM
CN1CCN(C)/C(=N/c2ccc([N+](=O)[O-])cc2C(=O)Nc2ccccc2)C1 > 10 µM

# next molecule below
Exercise: Please report the recorded IC50 for N#Cc1c(N)ncnc1N1CSC[C@H]1c1nc2cccc(Cl)c2c(=O)n1-c1cccs1 .
Key: > 10 µM
